Origin of values: ChEMBL document CHEMBL1127182

- System: Salmonella typhimurium
- PROCEDURE_TEXT: Tested for antibacterial activity as minimum inhibitory concentration against Salmonella Typhimurium 701 in the absence of polymyxin B nonapeptide (PBMN) at 0 ug/mL
- Assay type: functional, Salmonella enterica subsp. enterica serovar Typhimurium
- SETTINGS: Salmonella enterica
MEASUREMENT_TYPE: MIC

For the compound CCn1cc(C(=O)O)c(=O)c2ccc(C)nc21 , give its reported MIC.
3.9 µg/mL

For the compound COc1ccc(-c2oc3cc(O)cc(O)c3c(=O)c2O)cc1 [KAEMPFERIDE] , give its reported MIC.
> 125 µg/mL

For the compound O=c1c(O)c(-c2ccccc2)oc2ccccc12 , give its reported MIC.
> 125 µg/mL

For the compound O=c1cc(-c2ccccc2)oc2cc(O)cc(O)c12 , give its reported MIC.
> 125 µg/mL

For the compound O=c1c(O)c(-c2ccc(O)c(O)c2)oc2cc(O)ccc12 , give its reported MIC.
> 125 µg/mL

For the compound CC1COc2c(N3CCN(C)CC3)c(F)cc3c(=O)c(C(=O)O)cn1c23 (stereo not given) , give its reported MIC.
0.125 µg/mL

For the compound O=c1c(O)c(-c2ccc(O)c(O)c2)oc2cc(O)cc(O)c12 , give its reported MIC.
> 125 µg/mL

For the compound COc1cc2oc(-c3ccccc3)cc(=O)c2c(O)c1O , give its reported MIC.
> 125 µg/mL

For the compound O=c1c(O)c(-c2cc(O)c(O)c(O)c2)oc2cc(O)cc(O)c12 , give its reported MIC.
> 125 µg/mL

For the compound O=c1c(O)c(-c2cc(O)cc(O)c2)oc2cc(O)cc(O)c12 , give its reported MIC.
> 125 µg/mL

* * *

Exercise: for every item that follows, state its recorded MIC.
- System: Staphylococcus aureus
- PROCEDURE_TEXT: Tested for antibacterial activity as minimum inhibitory concentration against Staphylococcus aureus strain OC6538
- Type: functional
- SETTINGS: Staphylococcus aureus; read-out: MIC

Report MIC from Staphylococcus aureus testing of CC1COc2c(N3CCN(C)CC3)c(F)cc3c(=O)c(C(=O)O)cn1c23 (centres undefined)
≤ 0.5 µg/mL

Report MIC from Staphylococcus aureus testing of O=c1c(O)c(-c2ccc(O)c(O)c2)oc2cc(O)cc(O)c12
62.5 µg/mL

Report MIC from Staphylococcus aureus testing of O=c1c(O)c(-c2ccc(O)c(O)c2)oc2cc(O)ccc12
> 125 µg/mL

Report MIC from Staphylococcus aureus testing of COc1ccc(-c2oc3cc(O)cc(O)c3c(=O)c2O)cc1 [KAEMPFERIDE]
> 125 µg/mL

* * *

- Test system: Escherichia coli
- PROCEDURE_TEXT: Tested for antibacterial activity as minimum inhibitory concentration against Escherichia coli KL-16 in the presence of polymyxin B nonapeptide (PBMN) at 1 ug/mL
- Assay type: functional
Exercise: for every item that follows, state its recorded MIC.
Use µg/mL as the unit, but write only the number.

For the compound O=c1c(O)c(-c2ccc(O)c(O)c2)oc2cc(O)ccc12 , give its reported MIC.
15.6

For the compound CCn1cc(C(=O)O)c(=O)c2ccc(C)nc21 , give its reported MIC.
0.5

For the compound O=c1c(O)c(-c2cc(O)c(O)c(O)c2)oc2cc(O)cc(O)c12 , give its reported MIC.
15.6

For the compound O=c1c(O)c(-c2cc(O)cc(O)c2)oc2cc(O)cc(O)c12 , give its reported MIC.
31.2

For the compound O=c1oc2c(O)c(O)cc3c(=O)oc4c(O)c(O)cc1c4c23 , give its reported MIC.
7.8

For the compound O=c1cc(-c2ccccc2)oc2c(O)c(O)ccc12 [7,8-DIHYDROXYFLAVONE] , give its reported MIC.
62.5
